Give measured Reduced relative colony forming efficiency, expressed as % inhibition, PC-3 for each item. Keep answers brief.
- System: PC-3 prostrate cell adenocarcinoma
- Assay Method Text: Relative colony forming efficiency after antisense treatment (Table 13)
- Assay type: cell-based, human
- Measurement Parameters: 0.2 μM antisense oligodeoxyribonucleotide phosphorothioate; PC-3 cells; averages of 2-8 determinations
Strand notation (5' to 3'): a small letter for the sugar, then the base; units joined by * are phosphorothioate-linked, units joined directly phosphodiester-linked; [ ] holds rarer units or linkages, { } end groups; capitals alone tell only the bases. d = 2'-deoxy (DNA)
Answers are plain numbers, in %.

Worked set:
ATAAAGTCAAATGGGTTCTC (DNA, all phosphorothioate, methylation of C not given here) [AS-II-1224-20] | 80.66
ACCCCTCACTCCAGCAGCCT (antisense dA*dC*dC*dC*dC*dT*dC*dA*dC*dT*dC*dC*dA*dG*dC*dA*dG*dC*dC*dT) [AS-II-110-20] | 92.06
ATCGCCGCCGTG (DNA, all phosphorothioate, methylation of C not given here) [AS-II-1775-12] | 78.17

Please state, for each entry, its recorded Reduced relative colony forming efficiency, expressed as % inhibition, PC-3.
1. GACGGCTGGGACAGGGTGCA (antisense dG*dA*dC*dG*dG*dC*dT*dG*dG*dG*dA*dC*dA*dG*dG*dG*dT*dG*dC*dA) [AS-II-134-20]
2. TTAGTGGTCAGGAGAATGTA (antisense; DNA, all phosphorothioate, methylation of C not given here) [AS-II-1819-20]
3. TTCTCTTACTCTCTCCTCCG (DNA, all phosphorothioate, methylation of C not given here) [AS-II-1048-20]
4. TTAGTCTTTCCTTCCAGTGA (DNA, all phosphorothioate, methylation of C not given here) [AS-II-1254-20]
5. CGGCTCATCCTCCACGC (dC*dG*dG*dC*dT*dC*dA*dT*dC*dC*dT*dC*dC*dA*dC*dG*dC) [AS-II-391-17]
6. TCCTTTATCCCACAACACTC (antisense; DNA, all phosphorothioate, methylation of C not given here) [AS-II-2067-20]
7. TGGCTGTGCTGGTTAAAGGA (DNA, all phosphorothioate, methylation of C not given here) [AS-II-1659-20]

[out]
1: 77.51; 2: 85.46; 3: 84.38; 4: 73.31; 5: 93.25; 6: 85.94; 7: 81.56

Please state, for each entry, its recorded Reduced relative colony forming efficiency, expressed as % inhibition, PC-3.
1. CAAATGGGTTCTCTACTCTG (DNA, all phosphorothioate, methylation of C not given here) [AS-II-1217-20]
2. CCCAGTTCCAGCATAAGTCT (DNA, all phosphorothioate, methylation of C not given here) [AS-II-1182-20]
3. GCTCCCACATATGAAAACTC (antisense; DNA, all phosphorothioate, methylation of C not given here) [AS-II-2229A-20]
4. CCTCCTCGGCGGTCCAAAAG (dC*dC*dT*dC*dC*dT*dC*dG*dG*dC*dG*dG*dT*dC*dC*dA*dA*dA*dA*dG; antisense) [AS-II-494-20]

[out]
1: 81.03; 2: 92.76; 3: 89.58; 4: 80.6

Please state, for each entry, its recorded Reduced relative colony forming efficiency, expressed as % inhibition, PC-3.
1. CTGCTTTAGTTTTCGGCTCC (dC*dT*dG*dC*dT*dT*dT*dA*dG*dT*dT*dT*dT*dC*dG*dG*dC*dT*dC*dC; antisense) [AS-II-362-20]
2. TCAGGCAAGCAAAATCACAG (DNA, all phosphorothioate, methylation of C not given here) [AS-II-1001-20]

[out]
1. 75.78
2. 85.94

Please state, for each entry, its recorded Reduced relative colony forming efficiency, expressed as % inhibition, PC-3.
1. TTCTGGCAAAAGGTGATACT (DNA, all phosphorothioate, methylation of C not given here) [AS-II-1538-20]
2. GCGGCGGGGGTTTTCTCTCA (dG*dC*dG*dG*dC*dG*dG*dG*dG*dG*dT*dT*dT*dT*dC*dT*dC*dT*dC*dA; antisense) [AS-II-412-20]

[out]
1: 84.71; 2: 73.96

Data provenance is patent US7405205B2.
